Provide the reported pKd of each item.
Target: T1, envelope protein of the Zika virus (ZIKV E) (Zika virus), Q32ZE1
T1 chain: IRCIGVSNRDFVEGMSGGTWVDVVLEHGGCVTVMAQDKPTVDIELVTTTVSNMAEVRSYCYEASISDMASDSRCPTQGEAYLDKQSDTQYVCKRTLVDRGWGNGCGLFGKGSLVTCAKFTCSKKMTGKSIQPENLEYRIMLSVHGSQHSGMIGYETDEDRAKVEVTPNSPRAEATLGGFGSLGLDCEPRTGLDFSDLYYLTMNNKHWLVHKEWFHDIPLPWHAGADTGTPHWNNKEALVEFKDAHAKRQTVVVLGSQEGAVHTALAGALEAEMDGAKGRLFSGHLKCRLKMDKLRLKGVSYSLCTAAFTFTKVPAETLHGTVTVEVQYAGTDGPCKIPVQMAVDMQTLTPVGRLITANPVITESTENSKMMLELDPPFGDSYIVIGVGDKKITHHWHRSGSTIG
Assay: SPR (BIACORE)
Give bare numbers, as −log10 of the molar value.

Examples from the recorded data:
[
  {
    "BINDER": "NDRLASLYDKV (modifications not checked) [Peptide SEQ ID NO: 14]",
    "pKd": 5.49
  },
  {
    "BINDER": "NLNDRLASLYDKV (modifications not checked) [Peptide SEQ ID NO: 15]",
    "pKd": 7.20
  },
  {
    "BINDER": "RVTQMNLNDRLASLYDKV (modifications not checked) [Peptide SEQ ID NO: 2]",
    "pKd": 4.74
  }
]

Next item in the queue.
The binder identified as RVTQMNLNDRLASLYDKV (modifications not checked) [peptide identified in the Sequence Listing as SEQ ID NO: 1] registered its pKd at 5.80
